- target.of.assay: T1, orthogonal hCD122 receptor (hoRb), hCD122 with H133D and Y134F (human, UniProt P14784 27-550)
- T1 sequence: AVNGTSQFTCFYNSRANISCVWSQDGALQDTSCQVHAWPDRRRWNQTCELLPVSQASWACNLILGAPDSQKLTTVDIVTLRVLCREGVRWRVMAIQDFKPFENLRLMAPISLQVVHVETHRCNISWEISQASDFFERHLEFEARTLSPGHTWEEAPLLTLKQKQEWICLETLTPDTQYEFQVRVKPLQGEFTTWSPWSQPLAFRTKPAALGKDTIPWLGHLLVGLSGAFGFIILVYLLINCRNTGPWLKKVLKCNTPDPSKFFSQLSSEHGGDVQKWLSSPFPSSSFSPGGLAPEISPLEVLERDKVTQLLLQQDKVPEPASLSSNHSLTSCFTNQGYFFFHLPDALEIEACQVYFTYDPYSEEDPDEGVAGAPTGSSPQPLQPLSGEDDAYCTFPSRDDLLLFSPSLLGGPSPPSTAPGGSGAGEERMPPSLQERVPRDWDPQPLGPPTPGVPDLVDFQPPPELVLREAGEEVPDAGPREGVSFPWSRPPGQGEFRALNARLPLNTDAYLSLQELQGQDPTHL
- run.description: cell-based or functional assay
hey, just use 1.0 if measured NKL Ortho Proliferation Signal 1:2 is less than 50000, otherwise 0.0

>>> group_label("SQVLMA (ligand) APTSSSTKKTQLQLSQLLVLLMAILNGINNYKNPKLTRMLTFKFYMPKKATELKHLQCLEEELKPLEEVLNLAQSKNFHLRPRDLISNINVIVLELKGSETTFMCEYADETATIVEFLNRWITFCQSIISTLT")
1.0
>>> group_label("SQVLHA (ligand) APTSSSTKKTQLQLSQLLVLLHAILNGINNYKNPKLTRMLTFKFYMPKKATELKHLQCLEEELKPLEEVLNLAQSKNFHLRPRDLISNINVIVLELKGSETTFMCEYADETATIVEFLNRWITFCQSIISTLT")
0.0
>>> group_label("L18V, SQVLKA (ligand) APTSSSTKKTQLQLSQLVVLLKAILNGINNYKNPKLTRMLTFKFYMPKKATELKHLQCLEEELKPLEEVLNLAQSKNFHLRPRDLISNINVIVLELKGSETTFMCEYADETATIVEFLNRWITFCQSIISTLT")
1.0
>>> group_label("SQVLRA (ligand) APTSSSTKKTQLQLSQLLVLLRAILNGINNYKNPKLTRMLTFKFYMPKKATELKHLQCLEEELKPLEEVLNLAQSKNFHLRPRDLISNINVIVLELKGSETTFMCEYADETATIVEFLNRWITFCQSIISTLT")
0.0
>>> group_label("Q126M, SQVLKA (ligand) APTSSSTKKTQLQLSQLLVLLKAILNGINNYKNPKLTRMLTFKFYMPKKATELKHLQCLEEELKPLEEVLNLAQSKNFHLRPRDLISNINVIVLELKGSETTFMCEYADETATIVEFLNRWITFCMSIISTLT")
1.0
>>> group_label("SQVLKL (ligand) APTSSSTKKTQLQLSQLLVLLKLILNGINNYKNPKLTRMLTFKFYMPKKATELKHLQCLEEELKPLEEVLNLAQSKNFHLRPRDLISNINVIVLELKGSETTFMCEYADETATIVEFLNRWITFCQSIISTLT")
0.0
>>> group_label("R81I, SQVLKA (ligand) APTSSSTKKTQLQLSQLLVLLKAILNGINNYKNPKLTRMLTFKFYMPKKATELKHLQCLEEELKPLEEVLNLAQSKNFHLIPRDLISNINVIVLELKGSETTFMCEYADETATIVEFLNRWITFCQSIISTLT")
0.0
